# target or system: T1, SHIP2-SH2 D48A (human, UniProt O15357 20-117, D48A)
# T1 sequence (looked up): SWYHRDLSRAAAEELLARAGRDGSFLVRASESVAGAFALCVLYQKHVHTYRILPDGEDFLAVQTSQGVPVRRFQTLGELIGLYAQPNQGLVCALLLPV
# protocol text: fluorescence polarisation
Non-standard residues stand in square brackets, D forms with d. No end group written: not given here. FAM = fluorescent label on the peptide N-terminus (FAM, not expanded in the evidence); pY = N[C@@H](Cc1ccc(OP(=O)(O)O)cc1)C(=O)O
outcome measure: Kd (µM)

>>> df
                                     binder  outcome_measure  endpoint_value
0  {FAM}-NAT[pY]VNVK [FAM-labeled c-MET peptide (1353-1360) with Y1356 phosphorylated, FAM-N-A-T-pY-V-N-V-K]               Kd             5.5

The reported measurements were obtained from paper PMC6251712.
